- Tested on: HEK-293T
- Method: Multiplex assay against HEK293T
- Format: toxicity, cell-based
- Experimental Setup: human, 12 h, 1 µM, compound concentration 1 uM, replicate 2
Catalogue of Population Fragmented Nuclei (%) readings, one per entry.
Field: numeric (%). Do not append units.

Before answering, review these 5 worked examples.
[[record]]
compound = "CCc1cc2c(cc1CC)CC(NC[C@H](O)c1ccc(O)c3[nH]c(=O)ccc13)C2"
value = 8

[[record]]
compound = "c1ccc2oc(-c3csc(C4CCN(Cc5nc6ncccc6[nH]5)CC4)n3)cc2c1"
value = 4

[[record]]
compound = "Cc1cn(-c2cc(NC(=O)c3ccc4c(c3)CN(c3cncnc3)C[C@@H]4C)cc(C(F)(F)F)c2)cn1"
value = 6

[[record]]
compound = "COc1cc2c(Nc3ccc(NC(=O)c4ccccc4)cc3)ncnc2cc1OCCCN1CCOCC1"
value = 3

[[record]]
compound = "CN(C)C/C=C/C(=O)Nc1cc2c(Nc3ccc(F)c(Cl)c3)ncnc2cc1O[C@H]1CCOC1.O=C(O)/C=C\\C(=O)O.O=C(O)/C=C\\C(=O)O [AFATINIB DIMALEATE]"
value = 6


Could you now consider this next compound?
Ask: Consider the compound shown here: CNc1oc(-c2cccc3ccccc23)nc1C#N What is its recorded Population Fragmented Nuclei (%)?
Reply: 8

###

Catalogue of Population Fragmented Nuclei (%) readings, one per entry.
- Tested on: Fibroblast
- Method: Multiplex assay against human fibroblast
- Assay type: toxicity, cell-based
- Experimental Setup: 48 h, 1 µM, compound concentration 1 uM, replicate 2
Field: numeric (%). Do not append units.

[[record]]
compound = "CCC(=O)O[C@]1(C(=O)SCF)[C@H](C)C[C@H]2[C@@H]3C[C@H](F)C4=CC(=O)C=C[C@]4(C)[C@@]3(F)[C@@H](O)C[C@@]21C [FLUTICASONE PROPIONATE]"
system_tested = "Fibroblast"
measure = "Population Fragmented Nuclei (%)"
units_of_measure = "%"
value = 26

[[record]]
compound = "COc1ccc(NS(=O)(=O)c2sc3ccc(Cl)cc3c2C)cc1N1CCNCC1.Cl"
system_tested = "Fibroblast"
measure = "Population Fragmented Nuclei (%)"
units_of_measure = "%"
value = 53


Ask: Consider the compound shown here: CCCn1c(=O)c2[nH]c(C34CC5CC(CC3C5)C4)nc2n(CCC)c1=O What is its recorded Population Fragmented Nuclei (%)?
Reply: 25

Ask: Consider the compound shown here: CC(=O)c1cc(-c2cc(C(=O)NC3CC3)ccc2C)c2ncccn12 What is its recorded Population Fragmented Nuclei (%)?
Reply: 30

###

- Tested on: HEK-293T
- Method: Multiplex assay against HEK293T
- Format: toxicity, cell-based
- Experimental Setup: human, 24 h, 1 µM, compound concentration 1 uM, replicate 1
Reported Population Pyknosed Nuclei (%) maps to class as: low value: < 20%; medium value: ≥ 20% and < 30%; high value: ≥ 30%

[[record]]
compound = "CCc1cc2c(cc1CC)CC(NC[C@H](O)c1ccc(O)c3[nH]c(=O)ccc13)C2 [INDACATEROL]"
class_assignment = "high value"

[[record]]
compound = "N#Cc1cnc(Nc2cc(NC[C@H]3CNCCO3)c(C(F)(F)F)cn2)cn1 [SRA-737]"
class_assignment = "low value"

[[record]]
compound = "CN(C)CCOc1ccc(-c2nc(-c3ccncc3)c(-c3ccc4c(c3)CC/C4=N\\O)[nH]2)cc1 [SB590885]"
class_assignment = "low value"


Now for a further compound.
Ask: Dear colleague, I would appreciate it if you could identify the bin for Cc1nc(Cc2cccc(C(F)(F)F)c2)sc1-c1ccc(C(N)=O)nc1 [TP-024n] and reply at your convenience.
Reply: high value

###

- System: Fibroblast
- Method: Multiplex assay against human fibroblast
- Format: toxicity, cell-based
- Experimental Setup: 12 h, 10 µM, compound concentration 10 uM, replicate 2
Catalogue of Population Apoptotic (%) readings, one per entry.
Field: numeric (%). Do not append units.

Before answering, review these 3 worked examples.
[[record]]
molecule = "COc1cc2c(NC3CCN(C(C)C)CC3)nc(N3CCC(F)(F)CC3)nc2cc1OCCCN1CCCC1"
system_tested = "Fibroblast"
measure = "Population Apoptotic (%)"
units_of_measure = "%"
value = 66

[[record]]
molecule = "O=C(O)c1ccc2cc(-c3ccc(O)c(C45CC6CC(CC(C6)C4)C5)c3)ccc2c1"
system_tested = "Fibroblast"
measure = "Population Apoptotic (%)"
units_of_measure = "%"
value = 100

[[record]]
molecule = "COc1cc2c(Nc3ccc(NC(=O)c4ccccc4)cc3)ncnc2cc1OCCCN1CCOCC1"
system_tested = "Fibroblast"
measure = "Population Apoptotic (%)"
units_of_measure = "%"
value = 0


Ask: Consider the molecule shown here: Cc1cc2c(cc1N1C(=O)c3cccc4c(CCCO)ccc(c34)C1=O)n(C)c(=O)n2C What is its recorded Population Apoptotic (%)?
Reply: 37

Ask: Consider the molecule shown here: Cc1nc(Cc2cccc(C(F)(F)F)c2)sc1-c1ccc(C(N)=O)nc1 [TP-024n] What is its recorded Population Apoptotic (%)?
Reply: 66

Ask: Consider the molecule shown here: CC(C)(C)c1cnc(CSc2cnc(NC(=O)C3CCNCC3)s2)o1 What is its recorded Population Apoptotic (%)?
Reply: 54

Ask: Consider the molecule shown here: N#Cc1cnc(Nc2cc(NC[C@H]3CNCCO3)c(C(F)(F)F)cn2)cn1 What is its recorded Population Apoptotic (%)?
Reply: 28

Ask: Consider the molecule shown here: CCCn1c(=O)c2[nH]c(C34CC5CC(CC3C5)C4)nc2n(CCC)c1=O What is its recorded Population Apoptotic (%)?
Reply: 55

Ask: Consider the molecule shown here: CC(C)N1CCC(C)(C)c2cc(C#Cc3ccc(C(=O)O)cc3)ccc21 What is its recorded Population Apoptotic (%)?
Reply: 0

###

- Test system: U2OS
- Method: Multiplex assay against U2OS
- Assay type: toxicity, cell-based
- Experimental Setup: human, 48 h, 1 µM, compound concentration 1 uM, replicate 2
Measure: Population Hoechst High Intensity Objects (%)
Field: numeric (%). Do not append units.

Before answering, review these 5 worked examples.
[[record]]
compound = "CCC(=O)O[C@]1(C(=O)SCF)[C@H](C)C[C@H]2[C@@H]3C[C@H](F)C4=CC(=O)C=C[C@]4(C)[C@@]3(F)[C@@H](O)C[C@@]21C [FLUTICASONE PROPIONATE]"
value = 8

[[record]]
compound = "O=C(O)c1ccc2cc(-c3ccc(O)c(C45CC6CC(CC(C6)C4)C5)c3)ccc2c1"
value = 2

[[record]]
compound = "Cc1nc(Cc2cccc(C(F)(F)F)c2)sc1-c1ccc(C(N)=O)nc1 [TP-024n]"
value = 4

[[record]]
compound = "CCn1c(-c2nonc2N)nc2cnc(Oc3cccc(NC(=O)c4ccc(OCCN5CCOCC5)cc4)c3)cc21 [GSK-269962A]"
value = 7

[[record]]
compound = "COc1ccc(NS(=O)(=O)c2sc3ccc(Cl)cc3c2C)cc1N1CCNCC1.Cl"
value = 4


Ask: Consider the compound shown here: CCCn1c(=O)c2[nH]c(C34CC5CC(CC3C5)C4)nc2n(CCC)c1=O What is its recorded Population Hoechst High Intensity Objects (%)?
Reply: 2

Ask: Consider the compound shown here: COc1cc2c(NC3CCN(C(C)C)CC3)nc(N3CCC(F)(F)CC3)nc2cc1OCCCN1CCCC1 What is its recorded Population Hoechst High Intensity Objects (%)?
Reply: 8

Ask: Consider the compound shown here: CCc1cc2c(cc1CC)CC(NC[C@H](O)c1ccc(O)c3[nH]c(=O)ccc13)C2 What is its recorded Population Hoechst High Intensity Objects (%)?
Reply: 5

Ask: Consider the compound shown here: CNc1oc(-c2cccc3ccccc23)nc1C#N What is its recorded Population Hoechst High Intensity Objects (%)?
Reply: 10

Ask: Consider the compound shown here: Nc1nc2c(c(N3CCNCC3)n1)CCC1=C2[C@@H]2CCCC[C@@H]2O1 What is its recorded Population Hoechst High Intensity Objects (%)?
Reply: 9

Ask: Consider the compound shown here: Cl.Cl.Nc1ncnc2c1c(-c1cccc(OCc3ccccc3)c1)cn2[C@H]1C[C@@H](CN2CCC2)C1 What is its recorded Population Hoechst High Intensity Objects (%)?
Reply: 3

Ask: Consider the compound shown here: Cc1cc2c(cc1N1C(=O)c3cccc4c(CCCO)ccc(c34)C1=O)n(C)c(=O)n2C What is its recorded Population Hoechst High Intensity Objects (%)?
Reply: 10

Ask: Consider the compound shown here: CC(=O)c1cc(-c2cc(C(=O)NC3CC3)ccc2C)c2ncccn12 What is its recorded Population Hoechst High Intensity Objects (%)?
Reply: 3

Ask: Consider the compound shown here: Nc1ccc(C(=O)Nc2cccc(-c3nc(N4CCOCC4)c4oc5ncccc5c4n3)c2)cn1 What is its recorded Population Hoechst High Intensity Objects (%)?
Reply: 7

Ask: Consider the compound shown here: CC(C)N1CCC(C)(C)c2cc(C#Cc3ccc(C(=O)O)cc3)ccc21 What is its recorded Population Hoechst High Intensity Objects (%)?
Reply: 6
